experimental-setup: 298.15 K; 101.33 kPa; Liquid
readout-type: mass density (kg/m3)
Dear colleague, please return just the value in kg/m3, with no unit written.

COCCOCCOCCOCCOC [2,5,8,11,14-pentaoxapentadecane] | 1007.12
COCCOCCOCCOC [2,5,8,11-tetraoxadodecane] | 980.625
CCCCCCCCCC [decane] | 726.357

## Task Look at this compound and give its reported mass density. CCCCCCC [heptane]
## Result 679.542

## Task And for CCCCCCCC [octane] ?
## Result 698.548

## Task And for CCCCCCCCCCCCCC [tetradecane] ?
## Result 759.274
